- Test system: Small cell lung cancer (DMS 114)
Entries annotated with measured GI50
Supply the numeric figure in µM, leaving out any unit text.

For the molecule shown here, CCC(C)(NC(=O)c1cncc(Br)c1)C(=O)CCl (stereo not shown) [Compound 44] , give the reported GI50. 0.33

###

System: Nonsmall cell lung cancer (NCIH522) | Read-out: log10(GI50)
Short version: log10 scale, GI50, nM.

What value of log10(GI50) has been recorded for this entry: CCC(C)(NC(=O)c1cccc(Br)c1)C(=O)C(Br)Br (stereo not shown) 3.03

Ok, now CCC(C)(NC(=O)c1cc(Cl)cc(Cl)c1)C(=O)C(Br)Br (stereo not shown) 2.45

Request: CCC(C)(NC(=O)c1cc(Cl)cc(Cl)c1)C(=O)CCl (stereo not shown) 3.30

How about this compound: CC(C)(NC(=O)c1cc(Cl)cc(Cl)c1)C(=O)C(Br)Br 3.02

Also CC(C)(NC(=O)c1cc(Cl)cc(Cl)c1)C(=O)C(Cl)Br (stereo not shown) ? 3.11

###

- Test system: mouse lymphoma cell line L5178Y
- assay.summary: Growth inhibition of mouse lymphoma cells (L5178Y), 48 h
- Format: cell-based
- particulars: 50 micromolar, 48 hours
// Not fulfilled strictly below 90% in inhibition at 50 µM; Fulfilled otherwise

# compound, measured.on, cat
records = [
    ("CC(C)(NC(=O)c1cccs1)C(=O)CCl", "mouse lymphoma cell line L5178Y", "Fulfilled"),
]

Identify whether the reported inhibition at 50 µM of the following compound is 90% or greater: CCC(C)(NC(=O)c1ccc2ncoc2c1)C(=O)CCl (stereo not drawn) Fulfilled

Further, for CCC(C)(NC(=O)c1ccc2ocnc2c1)C(=O)CCl (stereo not drawn) ? Not fulfilled

Cool, now CCC(C)(NC(=O)c1ccc(Cl)nc1)C(=O)CCl (stereo not drawn) Not fulfilled

Thanks! And CC(C)C(C)(NC(=O)c1cc(Cl)cc(Cl)c1)C(=O)CCl (stereo not drawn) ? Not fulfilled

###

Let's go through some recorded log10 GI50 values for Small cell lung cancer (DMS 114) together.
Form field - Quantity: GI50; Unit: nM; Scale: log10

// worked examples, log10 GI50 included
# compound, measure, quantitative.readout
rows = [
    ("CC(C)(NC(=O)c1cc(Cl)cc(Cl)c1)C(=O)C(Br)Br [Compound 17]", "log10 GI50", 3.32),
    ("CCC(C)(NC(=O)c1cc(C)cc(C#N)c1)C(=O)CCl (stereo not drawn) [Compound 23]", "log10 GI50", 3.34),
    ("CCC(C)(NC(=O)c1cc(Cl)cc(C=NOC)c1)C(=O)CCl (stereo not drawn) [Compound 4]", "log10 GI50", 3.19),
    ("CCC(C)(NC(=O)c1cc(Cl)cc(Cl)c1)C(=O)CSC#N (stereo not drawn) [Compound 26]", "log10 GI50", 3.57),
    ("CC(C)(NC(=O)c1cc(Cl)cc(Cl)c1)C(=O)CCl [Compound 28]", "log10 GI50", 3.73),
    ("CC(C)(NC(=O)c1cc(Cl)cc(Cl)c1)C(=O)C(Cl)Br (stereo not drawn) [Compound 15]", "log10 GI50", 3.82),
]

What does the data say about its log10 GI50? Entry: CCC(C)(NC(=O)c1cc(Cl)cc(Cl)c1)C(=O)C(Br)Br (stereo not drawn) [Compound 13] 2.38

Try this compound next: CCC(C)(NC(=O)c1cc(Cl)cc(Cl)c1)C(=O)CCl (stereo not drawn) [Compound 14] 2.86

Lookup CCC(C)(NC(=O)c1cccc(Br)c1)C(=O)C(Br)Br (stereo not drawn) [Compound 7] 3.26

###

- Tested on: Nonsmall cell lung cancer (NCIH522)
measure: GI50 (nM)
Use nM as the unit, but write only the number.

Before answering, review these 3 worked examples.
# compound, measured.on, GI50 [nM]
measured = [
    ("CC(C)(NC(=O)c1cc(Cl)cc(Cl)c1)C(=O)CCl", "Nonsmall cell lung cancer (NCIH522)", 2610),
    ("CCC(C)(NC(=O)c1cc(C)cc(C#N)c1)C(=O)CCl (centres unmarked)", "Nonsmall cell lung cancer (NCIH522)", 2050),
    ("CCC(C)(NC(=O)c1cncc(Br)c1)C(=O)CCl (centres unmarked)", "Nonsmall cell lung cancer (NCIH522)", 350),
]

Field request: GI50 | item: CCC(C)(NC(=O)c1cc(Cl)cc(Cl)c1)C(=O)CSC#N (centres unmarked) 3770

How about this compound: CCC(C)(NC(=O)c1cc(Cl)cc(C=NOC)c1)C(=O)CCl (centres unmarked) 2140

###

- Test system: mouse lymphoma cell line L5178Y
- assay.summary: Growth inhibition of mouse lymphoma cells (L5178Y), 48 h
- Type: cell-based
- particulars: 50 micromolar, 48 hours
measure: inhibition at 50 µM (%)
Report only the number, with the unit % understood.

Sample answers from the record:
# compound, measured.on, result.unit, inhibition at 50 µM
data = [
    ("CC(C)(NC(=O)c1cc(Cl)cc(Cl)c1)C(=O)C(Cl)Cl [Compound 40]", "mouse lymphoma cell line L5178Y", "%", 92),
    ("CCC(C)(NC(=O)c1ccccc1)C(=O)CCl (stereo not shown) [Compound 36]", "mouse lymphoma cell line L5178Y", "%", 91),
]

Query compound follows.
Would you mind telling me what inhibition at 50 µM value was observed for CCC(C)(NC(=O)c1cc(F)c(F)c(F)c1)C(=O)CCl (stereo not shown) [Compound 37] ? 96

###

- Tested on: mouse lymphoma cell line L5178Y
- assay.summary: Growth inhibition of mouse lymphoma cells (L5178Y), 48 h
- Type: cell-based
- particulars: 50 micromolar, 48 hours
Listed here are molecules together with their documented inhibition at 50 µM.
Value expressed in %; do not type the unit.

Examples with answers:
# molecule, inhibition at 50 µM (%)
data = [
    ("CC(C)(NC(=O)c1ccccc1)C(=O)CCl [Compound 39]", 96),
    ("CC(C)(NC(=O)C1CCCCC1)C(=O)CCl [Compound 58]", 77),
    ("CCC(C)(NC(=O)c1cccnc1)C(=O)CCl (stereo not shown) [Compound 45]", 36),
]

Now take the following molecule into account.
// lookup inhibition at 50 µM for CCC(C)(NC(=O)c1ccc(C)s1)C(=O)CCl (stereo not shown) [Compound 48] 97
